Target Or System: T1, human TNFR2 on the surface of CHO-TNFR2 cells (human, UniProt P20333 23-461)
T1 construct: whole, on cells
T1 sequence (looked up): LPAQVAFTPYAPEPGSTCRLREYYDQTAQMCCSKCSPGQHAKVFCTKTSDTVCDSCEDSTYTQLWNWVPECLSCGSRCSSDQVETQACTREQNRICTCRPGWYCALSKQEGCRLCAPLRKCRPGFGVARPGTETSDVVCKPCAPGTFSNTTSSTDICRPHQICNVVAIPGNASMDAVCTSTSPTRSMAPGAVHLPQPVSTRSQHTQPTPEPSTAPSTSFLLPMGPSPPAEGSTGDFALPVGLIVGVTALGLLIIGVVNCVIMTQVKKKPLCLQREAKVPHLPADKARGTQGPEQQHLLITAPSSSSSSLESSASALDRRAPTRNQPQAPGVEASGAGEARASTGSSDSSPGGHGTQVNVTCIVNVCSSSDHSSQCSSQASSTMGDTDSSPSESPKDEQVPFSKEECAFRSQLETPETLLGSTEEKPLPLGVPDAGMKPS
Measurement Notes: competition flow cytometry on CHO-TNFR2 cells, competitor TNFα-biotin; AUC against 224-WT
Please respond with reported % Relative activity (WT antibody/test antibody) for every item in the list.
The answer should read as a number with its unit following.

Binder | Value Observed
224-Hu1 (antibody, V domains shown, Humanized form of #224; also called VH8 + VL6) VH: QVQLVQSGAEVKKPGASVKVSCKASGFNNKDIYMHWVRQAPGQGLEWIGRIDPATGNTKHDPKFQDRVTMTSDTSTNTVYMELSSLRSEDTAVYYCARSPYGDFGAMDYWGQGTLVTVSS VL: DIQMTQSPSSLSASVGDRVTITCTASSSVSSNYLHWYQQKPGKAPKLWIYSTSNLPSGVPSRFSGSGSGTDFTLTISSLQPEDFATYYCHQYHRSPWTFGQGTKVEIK | 99.2%

Count: 2. Required value per item: % Relative activity (WT antibody/test antibody).
1. 224-Hu7 (antibody, V domains shown, Humanized form of #224; also called VH9 + VL10) VH: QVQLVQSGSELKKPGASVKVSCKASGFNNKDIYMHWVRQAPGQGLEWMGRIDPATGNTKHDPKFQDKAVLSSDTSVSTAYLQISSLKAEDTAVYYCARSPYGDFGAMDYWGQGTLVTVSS VL: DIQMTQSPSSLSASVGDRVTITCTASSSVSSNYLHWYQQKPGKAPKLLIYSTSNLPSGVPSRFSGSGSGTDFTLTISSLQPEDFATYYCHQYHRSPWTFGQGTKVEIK
2. 224-Hu5 (antibody, V domains shown, Humanized form of #224; also called VH9 + VL9) VH: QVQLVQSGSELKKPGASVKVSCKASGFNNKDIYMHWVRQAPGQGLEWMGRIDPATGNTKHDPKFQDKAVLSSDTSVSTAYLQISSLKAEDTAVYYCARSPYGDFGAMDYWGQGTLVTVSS VL: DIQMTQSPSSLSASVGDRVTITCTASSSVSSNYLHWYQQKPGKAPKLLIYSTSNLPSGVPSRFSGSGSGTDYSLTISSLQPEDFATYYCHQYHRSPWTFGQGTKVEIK

91.1%
94.4%

// data source = patent US20240109974A1
